Each entry below carries its recorded pIC50.
molecular target: human DYRK1A (Homo sapiens); experiment: Human DYRK1A kinase functional assay (CEREP, LANCE detection)
pIC50: −log10 of the molar value.
reported property: pIC50

>  <compound>
CCc1nc2c(c3c1[nH]c1ccc(F)cc13)C(=O)CC(C)(C)C2

>  <reported>
> 5.70

$$$$
>  <compound>
Cc1nc2c(c3c1[nH]c1ccccc13)C(=O)CC1(CCCCC1)C2

>  <reported>
> 5.00

$$$$
>  <compound>
CCc1nc2c(c3c1[nH]c1ccccc13)C(=O)CC(C)(C)C2

>  <reported>
> 5.30

$$$$
>  <compound>
CCc1nc2c(c3c1[nH]c1cccc(F)c13)C(=O)CC(C)(C)C2

>  <reported>
> 5.30

$$$$
>  <compound>
Cc1nc2c(c3c1[nH]c1ccc(F)cc13)C(=O)CC(C)(C)C2

>  <reported>
> 5.70

$$$$
>  <compound>
Cc1nc2c(c3c1[nH]c1cccc(F)c13)C(=O)CC(C)(C)C2

>  <reported>
> 5.30

$$$$
>  <compound>
Cc1nc2c(c3c1[nH]c1ccccc13)C(=O)CC(C)C2 (stereo not shown)

>  <reported>
> 5.30

$$$$
>  <compound>
COc1ccc2[nH]c3cnc4c(c3c2c1)C(=O)CC(C)(C)C4

>  <reported>
> 5.00

$$$$
>  <compound>
Cc1nc2c(c3c1[nH]c1ccc(Cl)cc13)C(=O)CC(C)(C)C2

>  <reported>
> 5.30

$$$$
>  <compound>
CC1(C)CC(=O)c2c(ncc3[nH]c4ccccc4c23)C1

>  <reported>
> 5.30

$$$$
